Ref: paper PMC12410356

tested on: E. multilocularis metacestode vesicles; experiment: Phosphoglucose isomerase (PGI) release assay (damage-marker release) on metacestode vesicles; format: cell-based, Echinococcus multilocularis; conditions: overview screen, 10 μM, singlets, 12 days, relative to 0.1 % Triton X-100, DMSO subtracted
Form field: PGI d12 (relative PGI release) (one value per entry).
Dear colleague, please return just the value in %, with no unit written.

COMPOUND: Nc1nc(-c2ccccc2)nc2[nH]nc(Nc3ccc(C(F)(F)F)cc3)c12
ENDPOINT VALUE: 0.02121

Exercise: Need PGI d12 (relative PGI release) of C[C@H](Cn1cnc2c(N)ncnc21)OCP(=O)(O)O , thanks.
Solution: -19.3802

Exercise: Need PGI d12 (relative PGI release) of O=S(=O)(NCB(O)O)c1ccc(-c2nnn[nH]2)cc1C(F)(F)F , thanks.
Solution: -17.35

Exercise: Need PGI d12 (relative PGI release) of CC[C@H](CO)NCCN[C@H](CC)CO , thanks.
Solution: 9.893

Exercise: Need PGI d12 (relative PGI release) of O=[N+]([O-])c1cn(Cc2nc(O)nc(O)c2Br)cn1 , thanks.
Solution: -7.383

Exercise: Need PGI d12 (relative PGI release) of O=C(CP(=O)(O)O)NCCc1cccc(Oc2ccccc2)c1 , thanks.
Solution: -11.6628

Exercise: Need PGI d12 (relative PGI release) of Nc1nnnn1CCOc1c2[nH]c3ccc(Cl)cc3c2cc2c1[nH]c1ccc(Cl)cc12 , thanks.
Solution: 16.3673

Exercise: Need PGI d12 (relative PGI release) of Cc1onc(-c2ccccc2)c1-c1ccc(S(N)(=O)=O)cc1 , thanks.
Solution: -4.614

Exercise: Need PGI d12 (relative PGI release) of COc1cc(C(C(=O)NC2CCCCC2)N(C(=O)Cc2c[nH]c3ccccc23)c2ccc(C(C)C)cc2)cc(OC)c1OC (stereo not drawn) , thanks.
Solution: 0.3627

---

system: E. multilocularis metacestode vesicles; assay: Metacestode vesicle viability assay (ATP, CellTiter-Glo); format: cell-based, Echinococcus multilocularis; conditions: overview screen, 10 μM, singlets, 12 days, relative to DMSO control
Form field: Viability d12 (relative viability) (one value per entry).
Don't forget the unit after the number, please.

COMPOUND: CCc1nc2ccc(Cl)cn2c1C(=O)NCc1ccc(N2CCC(c3ccc(OC(F)(F)F)cc3)CC2)cc1
ENDPOINT VALUE: 83.8288%
--
COMPOUND: O=C(Nc1nnc(-c2ccccc2)o1)c1ccc(F)cc1
ENDPOINT VALUE: 33.8998%
--
COMPOUND: N[C@H]1CCC[C@H]1C(=O)O
ENDPOINT VALUE: 78.6856%
--
COMPOUND: CC(C)N=c1cc2n(-c3ccc(Cl)cc3)c3ccccc3nc-2cc1Nc1ccc(Cl)cc1
ENDPOINT VALUE: 4.175%
--
COMPOUND: CN(C/C=C/C#CC(C)(C)C)Cc1cccc2ccccc12
ENDPOINT VALUE: 186.198%
--
COMPOUND: Cc1ccn2c(C(=O)NCc3ccccc3)c(C)nc2c1
ENDPOINT VALUE: 87.8278%
--
COMPOUND: CC(N)C12CC3CC(CC(C3)C1)C2 (stereo not shown)
ENDPOINT VALUE: 63.7477%
--
COMPOUND: Oc1cccc(C(Nc2nccs2)c2ccc3cccnc3c2O)c1 (stereo not shown)
ENDPOINT VALUE: 17.7096%
--
COMPOUND: CC(C)(C)OC(=O)NCc1ccc(C(=O)N[C@H]2CCOC2=O)cc1
ENDPOINT VALUE: 30.2259%

Exercise: Need Viability d12 (relative viability) of OC1O[C@H](CSc2ccc(F)cc2)[C@@H](O)[C@H]1O (stereo partly shown) , thanks.
Solution: 95.5206%

---

Form field: Viability d12 (relative viability) (one value per entry).
test system: E. multilocularis metacestode vesicles; assay: Metacestode vesicle viability assay (ATP, CellTiter-Glo); assay type: cell-based, Echinococcus multilocularis; conditions: overview screen, 10 μM, singlets, 12 days, relative to DMSO control
Dear colleague, please return just the value in %, with no unit written.

These recorded examples may help you get a feel for the data.
COMPOUND: CN(C)CC(=O)Nc1ccc2[nH]c(=O)c3ccccc3c2c1
EXPERIMENTAL READOUT: Viability d12 (relative viability)
ENDPOINT VALUE: 169.884

COMPOUND: O=S(=O)(Nc1ccc(O)cc1)c1cccc2cccnc12
EXPERIMENTAL READOUT: Viability d12 (relative viability)
ENDPOINT VALUE: 83.9227

COMPOUND: CC[C@@]1(O)C(=O)OCc2c1cc1n(c2=O)Cc2cc3c([N+](=O)[O-])cccc3nc2-1
EXPERIMENTAL READOUT: Viability d12 (relative viability)
ENDPOINT VALUE: 120.917

COMPOUND: O=C(Nc1ccc(F)cc1)c1nn(-c2ccccc2)c(=O)cc1Cl
EXPERIMENTAL READOUT: Viability d12 (relative viability)
ENDPOINT VALUE: 71.8821

COMPOUND: CC(C)Nc1nc2cc(Cl)c(Cl)cc2n1[C@H]1O[C@@H](CO)[C@H](O)[C@@H]1O
EXPERIMENTAL READOUT: Viability d12 (relative viability)
ENDPOINT VALUE: 80.7959

COMPOUND: O=C(Nc1ccc(Cl)c(C(F)(F)F)c1)C(CCCl)C(=O)Nc1ccc(Cl)c(C(F)(F)F)c1
EXPERIMENTAL READOUT: Viability d12 (relative viability)
ENDPOINT VALUE: 11.8566

COMPOUND: Cl.N=C(N)c1ccc(COc2ccc(Cl)cc2)cc1
EXPERIMENTAL READOUT: Viability d12 (relative viability)
ENDPOINT VALUE: 5.845

COMPOUND: CCc1ccc(C2CC(C(F)(F)F)n3ncc(C(=O)NCc4ccc(OC)cc4)c3N2)cc1 (stereo not drawn)
EXPERIMENTAL READOUT: Viability d12 (relative viability)
ENDPOINT VALUE: 124.843

// next entry
Exercise: Need Viability d12 (relative viability) of Cc1nc2ccc(Oc3ccccc3)cc2c2c1CCN2CCc1ccccc1 , thanks.
Solution: 23.583

---

test system: E. multilocularis metacestode vesicles; experiment: Phosphoglucose isomerase (PGI) release assay (damage-marker release) on metacestode vesicles; assay type: cell-based, Echinococcus multilocularis; conditions: overview screen, 10 μM, singlets, 5 days, relative to 0.1 % Triton X-100, DMSO subtracted
EXPERIMENTAL READOUT: PGI d5 (relative PGI release) (%)
Dear colleague, please return just the value in %, with no unit written.

CHEMICAL STRING: CC1(C)CC(NC(=O)C(=O)Nc2ccc(Cl)cc2)CC(C)(C)N1
TARGET SYSTEM: E. multilocularis metacestode vesicles
PGI d5 (relative PGI release) (%): 0.3852

Exercise: Need PGI d5 (relative PGI release) of CC(=O)O[C@H]1C[C@@]2(C)[C@@H](C[C@@H](O)[C@H]3[C@@]4(C)CC[C@@H](O)[C@@H](C)[C@@H]4CC[C@@]32C)/C1=C(\CCC=C(C)C)C(=O)O , thanks.
Solution: 2.315

Exercise: Need PGI d5 (relative PGI release) of Cc1[nH]c2ccccc2c1CC(=O)N[C@@H](Cc1ccccc1)C(=O)N(C)c1ccccc1 , thanks.
Solution: 0.141

Exercise: Need PGI d5 (relative PGI release) of Cc1onc(-c2ccccc2)c1-c1ccc(S(N)(=O)=O)cc1 , thanks.
Solution: 0.1005

---

Form field: Viability d12 (relative viability) (one value per entry).
test system: E. multilocularis metacestode vesicles; experiment: Metacestode vesicle viability assay (ATP, CellTiter-Glo); assay type: cell-based, Echinococcus multilocularis; conditions: overview screen, 10 μM, singlets, 12 days, relative to DMSO control
Dear colleague, please return just the value in %, with no unit written.

Exercise: Item CCOC(=O)Nc1cc(NC(C)CC(C)CN(CC)CC)c2nc(-c3ccccc3)c(-c3ccccc3)nc2n1 (stereo not drawn) with E. multilocularis metacestode vesicles - Viability d12 (relative viability)?
Solution: 104.121

---

test system: E. multilocularis metacestode vesicles; test: Metacestode vesicle viability assay (ATP, CellTiter-Glo); type: cell-based, Echinococcus multilocularis; conditions: overview screen, 10 μM, singlets, 12 days, relative to DMSO control
EXPERIMENTAL READOUT: Viability d12 (relative viability) (%)
Dear colleague, please return just the value in %, with no unit written.

COMPOUND: Cn1c2ccccc2c(=O)c2c(O)cccc21 [MMV1580500]
ENDPOINT VALUE: 90.8954
//
COMPOUND: FC(F)(F)c1cc(C(F)(F)F)c2ccc3nc(-c4nnco4)cn3c2n1 [MMV690555]
ENDPOINT VALUE: 300.676
//
COMPOUND: CC(C)C(=O)N[C@H]1[C@H]([C@H](O)[C@H](O)CO)OC(C(=O)O)=C[C@@H]1N=[N+]=[N-] [MMV1782111]
ENDPOINT VALUE: 85.5263
//
COMPOUND: Clc1cc(Cl)c2c(c1)CCc1ccccc1C2n1ccnc1 (stereo not shown) [MMV1634492]
ENDPOINT VALUE: 206.655
//
COMPOUND: CC[C@H]1OC(=O)[C@H](C)[C@@H](O[C@H]2C[C@@](C)(OC)[C@@H](O)[C@H](C)O2)[C@H](C)[C@@H](O[C@@H]2O[C@H](C)C[C@H](N(C)C)[C@H]2O)[C@](C)(O)C[C@@H](C)C(=O)[C@H](C)[C@@H](O)[C@]1(C)O [MMV003137]
ENDPOINT VALUE: 63.8752

Exercise: Need Viability d12 (relative viability) of COc1ccc2cc3[n+](cc2c1OCCN(CCn1cncn1)Cc1ccc(F)cc1F)CCc1cc2c(cc1-3)OCO2 [MMV1593540] , thanks.
Solution: 37.1562

Exercise: Need Viability d12 (relative viability) of CC(C)(C)c1cccc(-c2nc3cc(C(=N)N)ccc3[nH]2)c1O [MMV1581548] , thanks.
Solution: 76.2328

Exercise: Need Viability d12 (relative viability) of CCCCOC(=O)Nc1cc2nc(C3CCCCC3)[nH]c2cc1N(CC)CC [MMV1578842] , thanks.
Solution: 6.68

Exercise: Need Viability d12 (relative viability) of COc1nc2ccc(Br)cc2cc1[C@@H](c1ccccc1)[C@@](O)(CCN(C)C)c1cccc2ccccc12 [MMV689758] , thanks.
Solution: 111.826

Exercise: Need Viability d12 (relative viability) of CCc1c(O)nc2ccc(F)cc2c1OCC1CCC1 [MMV1634395] , thanks.
Solution: 119.991
